System: LOX IMVI melanoma
Assay: NCI-60 one-dose screen, 48 h
Settings: 10 µM
This is part of a sample that, as a whole, favours compounds with a hit. Of some 83,000 tested, about 20% had one in any assay. Calls of active or inactive are those of the source. How the source made its calls: active means growth percent below 10; inactive means the rest.
Give your call using only these classes: active, inactive

Problem: Name the outcome recorded for `S=C1N(c2ccccc2)CN(C2CCCCC2)CN1c1ccccc1` in the assay.
Result: inactive

Problem: Name the outcome recorded for `COCCn1cc(-c2nc(-c3cccnc3)cs2)c2cc(F)ccc21` in the assay.
Result: inactive

Problem: Name the outcome recorded for `COc1ccc(-c2nn(-c3cccc(Cl)c3)cc2-c2c(C#N)c(=O)n3[nH]c(-c4ccccc4)nc3c2C#N)cc1` in the assay.
Result: inactive

Problem: Name the outcome recorded for `CC(C)(C)OC(=O)CC(S(=O)(=O)c1ccccc1)S(=O)(=O)c1ccccc1` in the assay.
Result: inactive

Problem: Name the outcome recorded for COc1ccc(/C(=N\N)C(=O)c2ccccc2)cc1 (tested in a mixture with another compound) in the assay.
Result: inactive

Problem: Name the outcome recorded for `Cc1cc(C)nc(NS(=O)(=O)c2ccc(Nc3nc4nc(NCc5ccccc5)nc(-c5ccc(O)cc5)c4c(=O)[nH]3)cc2)n1` in the assay.
Result: inactive

Problem: Name the outcome recorded for N#CC1=C(N)Oc2cc(N)ccc2C1c1cccnc1 (stereo unspecified) in the assay.
Result: inactive

Problem: Name the outcome recorded for CCCN(CCC)C(=O)[C@H](CC)[C@@H]1CC[C@@H](C)[C@@H]([C@H](C)[C@@H](O)[C@@H](C)C(=O)[C@H](CC)C2O[C@]3(C=C[C@@H](O)[C@]4(CC[C@@](C)([C@H]5CC[C@](O)(CC)[C@H](C)O5)O4)O3)[C@H](C)C[C@@H]2C)O1 (stereo partly specified) in the assay.
Result: active

Problem: Name the outcome recorded for `CN1CCN(CCCn2c(=O)c3sc4ncccc4c3n3nnc(-c4ccccc4)c23)CC1` in the assay.
Result: active

Problem: Name the outcome recorded for CC[C@@H](C(=O)[C@H](C)[C@H](O)[C@@H](C)[C@H]1O[C@H]([C@@H](CC)C(=O)N(CC)CC)CC[C@H]1C)C1O[C@]2(C=C[C@@H](O)[C@]3(CC[C@@](C)([C@H]4CC[C@](O)(CC)[C@H](C)O4)O3)O2)[C@H](C)C[C@@H]1C (stereo partly specified) in the assay.
Result: inactive

Problem: Name the outcome recorded for `O=C(NCCCNS(=O)(=O)c1ccc(Cl)cc1)Nc1ccc(-n2cc(-c3ccncc3)c(-c3ccc(Cl)c(O)c3)n2)cc1` in the assay.
Result: inactive

Problem: Name the outcome recorded for `Fc1ccc(C(c2ccc(F)cc2)C(Cl)Cl)cc1` in the assay.
Result: inactive

Problem: Name the outcome recorded for `COc1ccc(-c2nn(-c3cccc(Cl)c3)cc2-c2c(C#N)c(N)n(N)c(=O)c2C#N)cc1` in the assay.
Result: inactive

Problem: Name the outcome recorded for `COc1ccc(-c2nn(-c3cccc(Cl)c3)cc2C=C(C#N)C#N)cc1` in the assay.
Result: active

Problem: Name the outcome recorded for Nc1ccc(-c2cccs2)cc1NC(=O)c1ccc(CCCC(=O)Nc2ccc(C3CC3N)cc2)cc1 (stereo unspecified) in the assay.
Result: inactive

Problem: Name the outcome recorded for `CCN(CC)CCOc1cccc2c1C(=O)c1cccc(OCCN(CC)CC)c1C2=O` in the assay.
Result: inactive

Problem: Name the outcome recorded for `CCN1CCN(CCC(=O)Nc2cccc(-n3cc(-c4ccncc4)c(-c4ccc(Cl)c(OC)c4)n3)c2)CC1` in the assay.
Result: active

Problem: Name the outcome recorded for `CCOC(=O)c1cc(C(=O)c2ccc(F)cc2F)n2ccccc12` in the assay.
Result: inactive

Problem: Name the outcome recorded for `COc1ccccc1-n1c(-c2sc(NC(C)=O)nc2C)n[nH]c1=S` in the assay.
Result: inactive

Problem: Name the outcome recorded for OC[C@H]1OC([S-])[C@H](O)[C@@H](O)[C@@H]1O.[Au+] (stereo partly specified) in the assay.
Result: inactive

Problem: Name the outcome recorded for `C/C(=N\O)c1ccc(NC(=O)CSc2nnc(-c3ccccc3)n2-c2ccccc2)cc1` in the assay.
Result: inactive

Problem: Name the outcome recorded for `CCOc1ccccc1/C=N\N=C\c1ccccc1O` in the assay.
Result: inactive

Problem: Name the outcome recorded for `CC(=O)Nc1cc2c(cc1Cl)Cc1cc(Cl)ccc1-2` in the assay.
Result: inactive

Problem: Name the outcome recorded for `C[n+]1c2ccccc2nc2ccccc21` in the assay.
Result: active

Problem: Name the outcome recorded for `c1ccc(CSc2ncccc2-c2nnc(SCCN3CCOCC3)o2)cc1` in the assay.
Result: inactive

Problem: Name the outcome recorded for `CN(C)CCOc1ccc(-c2nc3sccn3c2-c2ccnc(S(C)(=O)=O)n2)cc1` in the assay.
Result: inactive

Problem: Name the outcome recorded for `O=C(CCCSc1nc(-c2ccccc2)cc(-c2ccc(Cl)cc2)n1)NO` in the assay.
Result: active

Problem: Name the outcome recorded for COc1cc(C2CC(c3ccccc3)=NN2C(C)=O)cc(OC)c1OC (stereo unspecified) in the assay.
Result: inactive

Problem: Name the outcome recorded for CC[C@@H](C(=O)[C@@H](C)[C@@H](O)[C@H](C)[C@@H]1O[C@@H]([C@@H](CC)C(=O)O)CC[C@@H]1C)C1O[C@]2(C=CC(=O)[C@]3(CC[C@@](C)([C@H]4CC[C@](O)(CC)[C@H](C)O4)O3)O2)[C@H](C)C[C@@H]1C (stereo partly specified) in the assay.
Result: inactive

Problem: Name the outcome recorded for `O=C1c2ccccc2C(=O)N1CCCCNc1ccccc1` in the assay.
Result: inactive

Problem: Name the outcome recorded for `CCNc1nc(C(F)(F)F)nc2c1sc(=S)n2-c1ccccc1` in the assay.
Result: inactive

Problem: Name the outcome recorded for `O=C(CCn1cnc2c(cc(-c3ccccc3)n2-c2ccccc2)c1=O)Nc1ccc(F)cc1` in the assay.
Result: inactive

Problem: Name the outcome recorded for `CCN(CC)CCNc1ccc(C)c2sc3cc(Cl)ccc3c(=O)c12` in the assay.
Result: active

Problem: Name the outcome recorded for `COc1cc2cc(Oc3ccc(NC(=O)Nc4ccc(C(F)(F)F)cc4)cc3)c(C)nc2cc1OC` in the assay.
Result: inactive

Problem: Name the outcome recorded for `C=CCn1c(SCC(=O)Nc2ccc(C(=O)/C=C/c3ccc(OC)cc3)cc2)nnc1-c1ccc(OC)c(OC)c1` in the assay.
Result: inactive

Problem: Name the outcome recorded for `COc1ccc2cc(-c3nc4ccccc4s3)c(Cl)nc2c1OC` in the assay.
Result: inactive
